Cited source for all entries: patent US8541588B2

TESTED_ON: Nav1.7 (or SCN9A) channel; HEK cells stably transfected with hSCN9A (Homo sapiens, UniProt Q15858)
Construct: expressed in transfected cells
Sequence (Q15858 whole entry): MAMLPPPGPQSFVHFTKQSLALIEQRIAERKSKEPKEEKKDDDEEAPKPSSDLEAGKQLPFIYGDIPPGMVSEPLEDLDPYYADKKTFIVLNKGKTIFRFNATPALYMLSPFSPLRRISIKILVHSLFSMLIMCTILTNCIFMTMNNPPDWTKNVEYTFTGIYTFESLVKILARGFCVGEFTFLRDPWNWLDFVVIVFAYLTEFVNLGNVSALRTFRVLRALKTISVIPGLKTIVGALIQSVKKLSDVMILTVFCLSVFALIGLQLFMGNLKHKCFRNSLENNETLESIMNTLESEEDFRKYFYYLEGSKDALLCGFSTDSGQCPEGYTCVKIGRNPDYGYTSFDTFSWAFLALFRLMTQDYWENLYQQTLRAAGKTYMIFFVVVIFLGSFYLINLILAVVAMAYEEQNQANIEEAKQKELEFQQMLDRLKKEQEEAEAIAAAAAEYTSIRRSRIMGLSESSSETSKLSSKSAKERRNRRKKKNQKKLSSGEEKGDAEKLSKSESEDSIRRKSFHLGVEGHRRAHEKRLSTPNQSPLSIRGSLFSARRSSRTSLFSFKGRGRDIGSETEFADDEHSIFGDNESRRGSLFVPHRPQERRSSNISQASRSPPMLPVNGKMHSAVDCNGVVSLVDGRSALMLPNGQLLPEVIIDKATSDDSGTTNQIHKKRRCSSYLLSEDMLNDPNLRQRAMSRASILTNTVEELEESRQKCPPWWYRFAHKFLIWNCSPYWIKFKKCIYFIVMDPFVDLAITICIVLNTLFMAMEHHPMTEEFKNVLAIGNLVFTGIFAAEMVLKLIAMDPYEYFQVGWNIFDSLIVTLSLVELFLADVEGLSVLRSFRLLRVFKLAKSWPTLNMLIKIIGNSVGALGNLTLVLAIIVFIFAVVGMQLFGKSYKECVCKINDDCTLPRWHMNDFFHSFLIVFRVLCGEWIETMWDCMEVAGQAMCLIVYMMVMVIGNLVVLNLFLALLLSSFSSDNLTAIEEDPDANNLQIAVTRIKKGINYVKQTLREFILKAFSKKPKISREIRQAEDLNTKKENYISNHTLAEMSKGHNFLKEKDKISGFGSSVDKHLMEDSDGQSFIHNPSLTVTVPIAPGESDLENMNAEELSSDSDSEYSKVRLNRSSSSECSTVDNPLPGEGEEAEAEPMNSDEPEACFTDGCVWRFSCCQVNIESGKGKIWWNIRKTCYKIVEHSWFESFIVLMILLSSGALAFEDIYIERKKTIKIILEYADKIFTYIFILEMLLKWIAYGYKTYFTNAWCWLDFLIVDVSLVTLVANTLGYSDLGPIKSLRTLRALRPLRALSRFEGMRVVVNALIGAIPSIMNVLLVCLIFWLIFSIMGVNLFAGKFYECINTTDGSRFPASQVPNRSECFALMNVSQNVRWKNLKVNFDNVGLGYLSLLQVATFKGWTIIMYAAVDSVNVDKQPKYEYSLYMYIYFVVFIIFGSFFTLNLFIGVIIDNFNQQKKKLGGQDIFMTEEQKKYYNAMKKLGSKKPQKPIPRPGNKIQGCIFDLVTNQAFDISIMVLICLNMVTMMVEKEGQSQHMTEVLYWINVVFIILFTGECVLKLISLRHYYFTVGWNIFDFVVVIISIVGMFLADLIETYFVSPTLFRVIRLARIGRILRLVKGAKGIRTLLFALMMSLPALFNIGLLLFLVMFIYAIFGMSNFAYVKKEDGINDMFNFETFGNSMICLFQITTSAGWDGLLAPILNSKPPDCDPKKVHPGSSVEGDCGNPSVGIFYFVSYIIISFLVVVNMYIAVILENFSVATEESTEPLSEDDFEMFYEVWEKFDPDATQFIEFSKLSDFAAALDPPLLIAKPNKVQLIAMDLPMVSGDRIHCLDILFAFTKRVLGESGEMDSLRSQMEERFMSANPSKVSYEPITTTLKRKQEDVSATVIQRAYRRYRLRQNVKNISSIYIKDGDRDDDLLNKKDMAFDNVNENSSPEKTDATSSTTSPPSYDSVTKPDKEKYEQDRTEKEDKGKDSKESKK
TEST_DESCRIPTION: Nav1.7 block, PatchXpress 7000 automated whole-cell voltage clamp, estimated IC50 (EIC50)
Assay type: cell-based
EXPERIMENTAL_SETUP: estimated IC50; hSCN9A HEK cells, PatchXpress platform; Examples 283-814
MEASURED_PROPERTY: IC50 (nM)
State the answer as a number, implicitly in nM.

Use the examples below as a reference point.
Ask: Quick one: IC50 of CC(C)c1cc(-n2cc(Cl)cn2)ccc1Oc1ccc(S(=O)(=O)Nc2nccs2)cc1C#N [Example 353] ?
Result: 220

Ask: Quick one: IC50 of N#Cc1cc(S(=O)(=O)Nc2nccs2)ccc1Oc1ccc(-c2cc(C(F)(F)F)nn2C2CNC2)cc1 [Example 558] ?
Result: 39

Ask: Quick one: IC50 of Cc1[nH]ncc1-c1cc(Cl)ccc1Oc1cc(F)c(S(=O)(=O)Nc2ncns2)cc1F [Example 635] ?
Result: 6.3

Let's switch to this compound now.
Ask: Quick one: IC50 of Cn1nc(C(F)(F)F)cc1-c1ccc(Oc2ccc(S(=O)(=O)Nc3ncc(F)s3)cc2C#N)cc1F [Example 719] ?
Result: 160
